Reported GI50 by item:
# System: COLO 205
# assay text: NCI tumour cell line growth inhibition, 48 h
The source made the active and inactive calls. Rule as the data show it: active = GI50 up to about 1.1 µM and inactive = higher.

Known GI50 results, listed for orientation:
- O=C(Nc1ccc(Cl)cc1)c1cc(S(=O)(=O)Nc2nnc3c(Cl)cc(C(F)(F)F)cn23)c(S)cc1Cl: > 100 µM (inactive)
- Cc1cc(=O)c2cc(/N=C/c3ccc([N+](=O)[O-])o3)ccc2o1: > 100 µM (inactive)
- COC1OC2COC1(OCc1ccccc1)C1OC(C)(C)OC21 (centres undefined): > 100 µM (inactive)

Field: next compound
Reported GI50 for CCCCCn1cc2c3c(cccc31)C1C=C(C)CN(C)[C@@H]1C2.Cc1ccc(C(=O)OC(C(=O)O)C(OC(=O)c2ccc(C)cc2)C(=O)O)cc1 (centres undefined) : what is it?
3.38 µM (inactive)

----------
# Test system: PC-3
# assay text: NCI tumour cell line growth inhibition, 48 h
The source made the active and inactive calls. Cut-off read from the data, not from the text of the source: active = GI50 up to about 1.1 µM and inactive = higher.
Reported GI50 by item:

* COc1cc(OC)c(-n2[nH]c(=O)n(C)c2=O)c(OC)c1 | > 100 µM (inactive)
* O=C(CN1C(=O)CC(c2ccccc2)(c2ccccc2)C1=O)N1CCN(CCO)CC1 | > 100 µM (inactive)

Short answer please: GI50, PC-3, entry O=C(O)C1C2c3ccccc3C(c3ccccc32)C1C(=O)NCC1CC1 (stereo not given)
53.7 µM (inactive)

Short answer please: GI50, PC-3, entry CC(=O)c1c(SCCN2CCCC2)n(-c2ccccc2)c(=S)n(-c2ccccc2)c1=O
3.56 µM (inactive)

Short answer please: GI50, PC-3, entry CN(C)CCC(=O)[C@@]1(O)CC[C@H]2[C@@H]3CC=C4C[C@@H](O)CC[C@]4(C)[C@H]3CC[C@@]21C
13.4 µM (inactive)

----------
# System: RPMI-8226
# assay text: NCI tumour cell line growth inhibition, 48 h
Active and inactive are the calls of the source. Rule as the data show it: active = GI50 up to about 1.1 µM and inactive = higher.
# output must be one of yes (active), no (inactive)

Completed entries (count: 3):
• O=C(c1ccccc1)C(Nc1ccc2ccccc2c1)c1ccccc1 (centres undefined) = no
• COC(=O)[C@@H]1C=CCN1S(=O)(=O)c1ccc(C)cc1 = no
• C[n+]1ccc2/c(=C\C#N)c3ccccc3n21 = no

Would you kindly look at the next entry?
Which result was noted for this compound in the test: CC(O)CC(=O)CO[C@H]1[C@H](O)[C@@H](O)[C@@H](O)[C@@H]2NC(=O)c3c(cc4c(c3O)OCO4)[C@H]21 (some centres undefined)
yes

----------
# System: UO-31
# assay text: NCI tumour cell line growth inhibition, 48 h
Active and inactive are the calls of the source. Cut-off read from the data, not from the text of the source: active = GI50 up to about 1.1 µM and inactive = higher.
# output must be one of YES (active), NO (inactive)

- CN/N=C(\C(=O)Nc1ccc(C)c(C)c1)C(C(=O)OC)c1nc2ccc([N+](=O)[O-])cc2nc1O (stereo unspecified): NO

Which result was noted for this molecule in the test: NC(Cc1ccc(O)cn1)C(=O)O (stereo unspecified)
NO

Which result was noted for this molecule in the test: CC1CNC(NS(=O)(=O)c2cc(C(=O)Nc3ccccc3)c(Cl)cc2S)=NN1 (stereo unspecified)
NO

Which result was noted for this molecule in the test: Cc1ccc(C(=O)C(Cl)C(Cl)c2ccc(C)cc2)cc1 (stereo unspecified)
NO

Which result was noted for this molecule in the test: Cc1ccc(S(=O)(=O)OCCn2cnc3nc(NC(=O)c4ccccc4)[nH]c(=O)c32)cc1
NO

Which result was noted for this molecule in the test: O=C(/C=C/c1cc(F)ccc1F)OCCc1ccccc1
NO

Which result was noted for this molecule in the test: Cc1ccc(/C=N/n2c(-c3ccc(C)cc3)n[nH]c2=O)cc1
NO

Which result was noted for this molecule in the test: O=C(/C=C/c1ccc(-c2ccccc2)cc1)NCc1ccc(C(=O)NCCc2ccccc2)cc1
NO

Which result was noted for this molecule in the test: CC(=O)CC(=O)/C=C/c1cccs1
NO

Which result was noted for this molecule in the test: COC(=O)CC1N/C(=N\C#N)N(CCc2c[nH]c3ccccc23)C1=O (stereo unspecified)
NO

Which result was noted for this molecule in the test: COc1cccc2c1C(=O)c1c(O)c3c(c(O)c1C2=O)C[C@@](O)(C(=O)CO)CC3OC1CC(N)C(OC2CCCCO2)C(C)O1 (stereo partly specified)
YES
